assayExplanation: Toxicity liver stage against HepG2, at 10uM
Assay type: cell-based
Set-up: test concentration 10 uM, cell line HepG2-A16-CD81EGFP
assayConditions: human, HepG2-A16-CD81EGFP cells; read-out: INHIBITION
measurementType: cytotoxicity at 10 µM (%)
One number for each entry, in %.

Known cytotoxicity at 10 µM results, listed for orientation:
CCN1CC(C(=O)N2CCc3cc(C(=O)N(C)C)n(C)c3C2)CCC1=O (configuration not stated) = -48.1
Cc1cc(NC(=O)CN2CCCC2c2c(C)nn(C)c2C)on1 (configuration not stated) = -2.9

Quick batch: cytotoxicity at 10 µM for everything below.
1. O=C1CN(C(=O)C2CN(c3ccc(F)cc3)CCO2)CCN1 (configuration not stated)
2. Cn1ccnc1C1CCN(CCC2CCOC2)CC1 (configuration not stated)
3. Cc1ncc(C(=O)NCCNc2ccncc2)s1
4. c1ccc(-c2noc3c2CN(CC2CC2)CC3)cc1
5. CCOCC1CN(C(=O)Cc2cccs2)Cc2ccnn2C1 (configuration not stated)

3.04
-4.06
1.72
-13.2
-78.7

Please supply cytotoxicity at 10 µM for each of the following items, keeping them in order.
1. COCCCNc1nccc(-c2c[nH][nH]c2=O)n1
2. Cc1nn(CN(Cc2ccsc2)C2CC2)c(=O)c2noc(C)c12
3. COc1ccc(C(=O)N2CCC(Oc3ccc(C)cc3)(C(=O)O)CC2)o1
4. Cc1cnc2c(c1NCc1ccccn1)c(=O)n(C)c(=O)n2C

7.46
-1.54
9.68
-4.32

Any idea what cytotoxicity at 10 µM was measured for `CS(=O)(=O)NC1CCN(Cc2coc(-c3ccc(Cl)cc3)n2)CC1` ?
-41.9
